# Tested on: MDA-MB-435 melanoma
# Protocol details: NCI-60 one-dose screen, 48 h
# Measurement parameters: 10 µM unless noted
About 83,000 compounds went through this panel and 20% of them were active in at least one assay; those are over-represented in the sample as a whole. The source made the active and inactive calls. Rule for the calls: active = growth percent below 10; inactive = the rest.
Thanks in advance; please answer with one of these: yes (1) for active, no (0) for inactive

Worked examples follow.
[
  {
    "Compound": "O=C1/C(=C/c2ccc(Cl)cc2)COc2ccc(O)cc21",
    "System under test": "MDA-MB-435 melanoma",
    "Answer label": "no (0)"
  },
  {
    "Compound": "O=C1C(Cl)=C(Nc2ccc(O)cc2)C(=O)N1Cc1ccc(Cl)cc1",
    "System under test": "MDA-MB-435 melanoma",
    "Answer label": "yes (1)"
  },
  {
    "Compound": "CCSc1nc(NC)c2cc(-c3ccc(C(F)(F)F)cc3)ccc2n1",
    "System under test": "MDA-MB-435 melanoma",
    "Answer label": "no (0)"
  }
]

Record request — test call for N#Cc1c(-c2ccc(Cl)cc2)nc(NN=Cc2cccc(O)c2)nc1N1CCOCC1
no (0)

Record request — test call for CCOC(=O)C#Cc1c(C(=O)OCC)nnn1[C@@H]1O[C@H](CO)[C@H]2OC3(CCCCC3)O[C@H]21
no (0)

Record request — test call for COc1ccc2c(c1)[n+]([O-])c(C(=O)/C=C/C=C(\Cl)c1cc(OC)c(OC)c(OC)c1)c(C)[n+]2[O-]
no (0)

Record request — test call for COc1ccc2nc(NC(=O)CSc3nnc4n3S(=O)(=O)c3ccccc3N4C)sc2c1
no (0)

Record request — test call for Cc1ccc(C(C(N)=O)C(C(N)=O)c2ccccc2)cc1 (centres undefined)
no (0)

Record request — test call for CCOC(=O)c1c(NC(=O)c2ccc(C(C)C)cc2)sc2c(CN(C)C)c(O)ccc12
no (0)

Record request — test call for CCOC(=O)c1cc2c(=O)oc3ccccc3c2oc1=O
no (0)

Record request — test call for COc1cc2c(c(OC)c1OC)C(=O)CC(c1cccc(NC(=O)c3ccc(Br)cc3)c1)O2 (centres undefined)
yes (1)

Record request — test call for Cc1nc2c(=O)[nH]c(SCC(=O)Nc3cccc(F)c3)nc2[nH]c1=O
no (0)

Record request — test call for O=C(CCCCC1CCSS1)Nc1ncnc2n[nH]c(-c3ccc(Oc4ccccc4)cc3)c12 (centres undefined)
yes (1)

---

# Test system: CAKI-1 renal
# Protocol details: NCI-60 one-dose screen, 48 h
# Measurement parameters: 10 µM unless noted
Compounds without any hit were thinned out: in the full panel of roughly 83,000, 20% have a hit. Active and inactive are the calls of the source. How the source made its calls: active means growth percent below 10; inactive means the rest.
Thanks in advance; please answer with one of these: 1 for active, -1 for inactive

Worked examples follow.
[
  {
    "Compound": "CC(C)OC(=O)c1ccc2[nH]c(O)c(C(=Nc3ccc(N(C)C(=O)CN4CCN(C)CC4)cc3)c3ccccc3)c2c1",
    "Answer label": 1
  },
  {
    "Compound": "Cc1cc(N)c2cc(NC(=O)/C=C\\c3ccccc3Cl)ccc2n1",
    "Answer label": 1
  },
  {
    "Compound": "CCOC(=O)C(=Cc1cccc(Cl)c1)C(=O)OCC",
    "Answer label": -1
  },
  {
    "Compound": "O=C(Cn1cc(CN2CCCCCC2)nn1)Nc1ccc2c(ccn2Cc2ccccc2)c1",
    "Answer label": -1
  },
  {
    "Compound": "COC(=O)c1cc(-c2ccccc2)[nH]c1N/N=C/c1c(Cl)cccc1Cl",
    "Answer label": 1
  },
  {
    "Compound": "COc1cc(-n2cc(-c3cc(O)c(C/C=C(\\C)CCC=C(C)C)c(O)c3)nn2)cc2c1O[C@]1(C)CC[C@@H](O)C(C)(C)[C@H]1C2",
    "Answer label": -1
  },
  {
    "Compound": "Oc1c(Cl)cc(Cl)c2ccc(Cn3cc(-c4cc(F)cc(F)c4)nn3)nc12",
    "Answer label": -1
  },
  {
    "Compound": "CC1(C)CC[C@]2(c3nnc(-c4ccncc4)o3)CC[C@H]3C(=CC[C@H]4[C@@]3(C)CC[C@H]3C(C)(C)C(=O)CC[C@]43C)[C@@H]2C1",
    "Answer label": -1
  },
  {
    "Compound": "CO[C@H]1/C=C(/C)CCC[C@H](C)[C@H](O)[C@@H](C)C(=O)C(C)(C)[C@@H](O)CC(=O)O[C@@H]1/C(C)=C/c1csc(C)n1",
    "Answer label": -1
  },
  {
    "Compound": "O=[N+]([O-])c1ccc(N/N=C(/C(=N/Nc2ccc([N+](=O)[O-])cc2)c2ccccc2)c2ccccc2)cc1",
    "Answer label": -1
  }
]

Record request — test call for Cc1cc(Cl)ccc1NC(=O)c1cc2ccccc2cc1O
1

Record request — test call for O=C1/C(=C/c2ccc(-c3ccc(Br)cc3)o2)SC(=S)N1CCc1ccc(O)cc1
-1

Record request — test call for CC(C)=CCC[C@](C)(O)[C@H]1CC[C@]2(C)[C@@H]1CC[C@@H]1[C@@]3(C)Cc4nccnc4C(C)(C)[C@@H]3CC[C@]12C
-1

Record request — test call for Cc1nc(N2CCOCC2)sc1S(N)(=O)=O
-1

Record request — test call for COc1cc(NC(C)CCCNC(C)C)c2ncccc2c1OC (configuration not stated)
-1
